# System: C. freundii IFO12681

compound: N=C(N)CSCCn1nnnc1SCC1=C(C(=O)O)N2C(=O)[C@@H](NC(=O)/C(=N\O)c3csc(N)n3)[C@H]2SC1 [Example 44]
target.entity: C. freundii IFO12681
qualifier.symbol: =
MIC, µg/mL: 0.39
--
compound: CO/N=C(\C(=O)N[C@@H]1C(=O)N2C(C(=O)O)=C(CSc3snc(SCC(=N)N)c3C#N)CS[C@H]12)c1csc(N)n1 [Example 15]
target.entity: C. freundii IFO12681
qualifier.symbol: =
MIC, µg/mL: 0.2
--
compound: N=C(N)CSc1nnc(SCC2=C(C(=O)O)N3C(=O)[C@@H](NC(=O)/C(=N\O)c4csc(N)n4)[C@H]3SC2)s1 [Example 39]
target.entity: C. freundii IFO12681
qualifier.symbol: =
MIC, µg/mL: 0.39
--
compound: CO/N=C(\C(=O)N[C@@H]1C(=O)N2C(C(=O)O)=C(CSc3nnnn3CCCNC(=N)N)CS[C@H]12)c1csc(N)n1 [Example 8]
target.entity: C. freundii IFO12681
qualifier.symbol: ≤
MIC, µg/mL: 0.1
--
compound: N#Cc1c(SCC(=N)N)nsc1SCC1=C(C(=O)O)N2C(=O)[C@@H](NC(=O)/C(=N\O)c3csc(N)n3)[C@H]2SC1 [Example 42]
target.entity: C. freundii IFO12681
qualifier.symbol: =
MIC, µg/mL: 0.78

---

MIC values, listed per item
# Test system: S. aureus FDA 209P
# test.description: Minimal inhibitory concentration, agar dilution method
# Type: cell-based
# condition.description: Staphylococcus aureus, FDA209P; S. aureus FDA 209P; Trypticase soy agar, about 10^8 CFU/ml, 37° C., 18 hours; read-out: MIC

given.smiles: N=C(N)CSCCn1nnnc1SCC1=C(C(=O)O)N2C(=O)[C@@H](NC(=O)/C(=N\O)c3csc(N)n3)[C@H]2SC1
qualifier.symbol: ≤
MIC / µg/mL: 0.1
//
given.smiles: CO/N=C(\C(=O)N[C@@H]1C(=O)N2C(C(=O)O)=C(CSc3snc(SCC(=N)N)c3C#N)CS[C@H]12)c1csc(N)n1
qualifier.symbol: =
MIC / µg/mL: 0.2
//
given.smiles: N=C(N)CSc1nnc(SCC2=C(C(=O)O)N3C(=O)[C@@H](NC(=O)/C(=N\O)c4csc(N)n4)[C@H]3SC2)s1
qualifier.symbol: =
MIC / µg/mL: 0.2
//
given.smiles: N#Cc1c(SCC(=N)N)nsc1SCC1=C(C(=O)O)N2C(=O)[C@@H](NC(=O)/C(=N\O)c3csc(N)n3)[C@H]2SC1
qualifier.symbol: ≤
MIC / µg/mL: 0.1

---

# key: entry, value: MIC
# System: S. aureus 308 A-1

given.smiles: CO/N=C(\C(=O)N[C@@H]1C(=O)N2C(C(=O)O)=C(CSc3nnnn3CCCNC(=N)N)CS[C@H]12)c1csc(N)n1
qualifier.symbol: =
MIC, µg/mL: 0.78
--
given.smiles: N=C(N)CSCCn1nnnc1SCC1=C(C(=O)O)N2C(=O)[C@@H](NC(=O)/C(=N\O)c3csc(N)n3)[C@H]2SC1
qualifier.symbol: ≤
MIC, µg/mL: 0.1
--
given.smiles: N#Cc1c(SCC(=N)N)nsc1SCC1=C(C(=O)O)N2C(=O)[C@@H](NC(=O)/C(=N\O)c3csc(N)n3)[C@H]2SC1
qualifier.symbol: ≤
MIC, µg/mL: 0.1
--
given.smiles: CO/N=C(\C(=O)N[C@@H]1C(=O)N2C(C(=O)O)=C(CSc3snc(SCC(=N)N)c3C#N)CS[C@H]12)c1csc(N)n1
qualifier.symbol: =
MIC, µg/mL: 0.2
--
given.smiles: N=C(N)CSc1nnc(SCC2=C(C(=O)O)N3C(=O)[C@@H](NC(=O)/C(=N\O)c4csc(N)n4)[C@H]3SC2)s1
qualifier.symbol: =
MIC, µg/mL: 0.2

---

The reader will find MIC measurements below, all made with S. marcescens IFO12648.
quantity: MIC

molecule: CO/N=C(\C(=O)N[C@@H]1C(=O)N2C(C(=O)O)=C(CSc3nnnn3CCCNC(=N)N)CS[C@H]12)c1csc(N)n1 [Example 8]
quantity: MIC
observed.measurement: ≤ 0.1 µg/mL
--
molecule: N#Cc1c(SCC(=N)N)nsc1SCC1=C(C(=O)O)N2C(=O)[C@@H](NC(=O)/C(=N\O)c3csc(N)n3)[C@H]2SC1 [Example 42]
quantity: MIC
observed.measurement: 1.56 µg/mL
--
molecule: CO/N=C(\C(=O)N[C@@H]1C(=O)N2C(C(=O)O)=C(CSc3snc(SCC(=N)N)c3C#N)CS[C@H]12)c1csc(N)n1 [Example 15]
quantity: MIC
observed.measurement: 0.39 µg/mL
--
molecule: N=C(N)CSc1nnc(SCC2=C(C(=O)O)N3C(=O)[C@@H](NC(=O)/C(=N\O)c4csc(N)n4)[C@H]3SC2)s1 [Example 39]
quantity: MIC
observed.measurement: 0.78 µg/mL
--
molecule: N=C(N)CSCCn1nnnc1SCC1=C(C(=O)O)N2C(=O)[C@@H](NC(=O)/C(=N\O)c3csc(N)n3)[C@H]2SC1 [Example 44]
quantity: MIC
observed.measurement: 0.39 µg/mL
